Could you please report measured pIC50 for the items listed next?
Target: Protein farnesyltransferase (Homo sapiens, UniProt P49354+P49356)
Experiment: In vitro inhibition of farnesyltransferase farnesylation of the H-ras oncogene
Assay type: protein-complex assay
Numbers only, as −log10 of the molar value.

Example entries and their recorded answers appear below.
{"compound": "CC(=O)N1CCC(CC(=O)N2CCN([C@H]3c4ccc(Cl)cc4CCc4cccnc43)CC2)CC1", "pIC50": 5.80}
{"compound": "NC(=O)N1CCC(CC(=O)N2CCN(C3c4ccc(Cl)cc4CCc4cccnc43)CC2)CC1 (stereo not given)", "pIC50": 6.09}

Give me pIC50 for each of these compounds, listed below.
1. O=C(Nc1cccnc1)N1CCN(C2c3ccc(Cl)cc3CCc3cc(Br)cnc32)CC1 (stereo not given)
2. CC(=O)N1CCC(C(=O)N2CCN([C@@H]3c4ccc(Cl)cc4CCc4cccnc43)CC2)CC1
3. CSCC[C@H](N)C(=O)N1CCC(CC(=O)N2CCN(C3c4ccc(Cl)cc4CCc4cccnc43)CC2)CC1 (stereo not given in full)

result:
1. 6.68
2. 5.39
3. 5.72
